# systemUnderTest: TDO (A172) (Homo sapiens, UniProt P48775)
# Construct: This assay utilised cancer cells which expressed either TDO (A172) or IDO (SKOV3); endogenous in cells; host or cells: A172 (human glioblastoma)
# Sequence (P48775 whole entry): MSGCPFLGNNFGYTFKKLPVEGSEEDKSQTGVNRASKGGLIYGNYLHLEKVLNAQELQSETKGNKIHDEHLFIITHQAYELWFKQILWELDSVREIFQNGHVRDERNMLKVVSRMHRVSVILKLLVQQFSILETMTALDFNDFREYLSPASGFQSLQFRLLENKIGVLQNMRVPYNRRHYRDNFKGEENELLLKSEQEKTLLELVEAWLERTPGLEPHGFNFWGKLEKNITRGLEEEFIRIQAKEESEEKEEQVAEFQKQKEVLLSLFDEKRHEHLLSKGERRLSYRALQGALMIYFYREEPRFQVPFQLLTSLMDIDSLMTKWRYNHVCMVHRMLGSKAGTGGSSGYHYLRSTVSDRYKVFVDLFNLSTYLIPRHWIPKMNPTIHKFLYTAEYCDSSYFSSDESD
# experimentSummary: A172 Kynurenine cell based assay
# appliedConditions: A172 human glioblastoma cells expressing TDO; kynurenine production, 48 hours
observedProperty: A172 Kynurenine cell based assay pIC50

> print(dat)
                                    compound            measuredresult
 1   O=C(CCO)Nc1oncc1-c1ccccc1 [Compound 41]  +++ (+++ = pIC50 ≥ 5.50)
 2  O=C(Nc1oncc1-c1ccccc1)c1ccncc1 [Compound 39]   + (+ = pIC50 4.00-4.49)
 3  CC(C)CS(=O)(=O)Nc1oncc1-c1ccccc1 [Compound 31]  +/− (+/− = pIC50 < 4.00)
 4  O=C(Nc1oncc1-c1ccccc1)C(O)C1CCCCC1 (centres unmarked) [Compound 74]   + (+ = pIC50 4.00-4.49)
 5  CC(C)(C)C(=O)Nc1oncc1-c1ccc(F)cc1 [Compound 8]  +/− (+/− = pIC50 < 4.00)
 6  O=S(=O)(Nc1oncc1-c1ccccc1)c1ccccc1 [Compound 26]   + (+ = pIC50 4.00-4.49)
 7  O=S(=O)(Nc1cncn1-c1ccccc1)c1ccccc1 [Compound 79]  +/− (+/− = pIC50 < 4.00)
 8     Nc1oncc1-c1ccc(F)c(F)c1 [Compound 12]  +++ (+++ = pIC50 ≥ 5.50)
 9         Nc1oncc1-c1ccc(F)cc1 [Compound 1]  +++ (+++ = pIC50 ≥ 5.50)
10  CCOC(=O)C(=O)Nc1oncc1-c1ccccc1 [Compound 45]  +++ (+++ = pIC50 ≥ 5.50)

Hello, I would appreciate it if you could give A172 Kynurenine cell based assay pIC50 for each entry below.
1. O=S(=O)(Nc1cnoc1-c1ccccc1)N1CCCCC1 [Compound 56]
2. O=S(=O)(Nc1cnoc1-c1ccccc1)c1cc(Cl)ccc1Cl [Compound 54]
3. O=C(Nc1oncc1-c1ccccc1)C1CCCCN1 (centres unmarked) [Compound 44]

Result block:
+/− (+/− = pIC50 < 4.00)
+ (+ = pIC50 4.00-4.49)
+++ (+++ = pIC50 ≥ 5.50)
